- TESTED ON: HDAC2 (Homo sapiens, UniProt Q92769)
- Construct: recombinant, full-length HDAC protein (HDAC1 100 pg/ul, HDAC2 200 pg/ul)
- Sequence (Q92769 whole entry): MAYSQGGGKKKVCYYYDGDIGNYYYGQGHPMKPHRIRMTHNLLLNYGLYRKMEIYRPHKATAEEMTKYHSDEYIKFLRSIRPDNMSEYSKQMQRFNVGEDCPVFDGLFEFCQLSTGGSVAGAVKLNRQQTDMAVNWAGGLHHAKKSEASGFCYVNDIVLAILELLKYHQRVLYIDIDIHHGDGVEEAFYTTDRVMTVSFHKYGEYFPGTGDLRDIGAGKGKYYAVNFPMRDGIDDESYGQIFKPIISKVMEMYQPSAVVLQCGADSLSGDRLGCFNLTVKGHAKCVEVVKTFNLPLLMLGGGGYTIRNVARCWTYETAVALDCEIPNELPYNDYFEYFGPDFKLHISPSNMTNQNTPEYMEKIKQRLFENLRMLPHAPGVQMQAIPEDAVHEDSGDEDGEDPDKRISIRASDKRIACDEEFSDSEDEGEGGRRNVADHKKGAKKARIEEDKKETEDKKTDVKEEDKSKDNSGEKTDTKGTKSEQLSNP
- METHOD DESCRIPTION: HDAC enzyme assay, HDAC2 (fluorogenic, 384-well)
- RUN PARAMETERS: read-out: IC50 HDAC2 (Tables 4-23, isoform selectivity panel)
- Protocol: The inhibitory effect of compounds on HDAC1-HDAC9 function was determined in vitro using an optimized homogenous assay performed in a 384-well plate format. […] Fluorescence measurements were obtained approximately every 5 min using a multilabel plate reader and plate stacker (Envision, Perkin-Elmer). Data were analyzed on a plate-by-plate basis for the linear range of fluorescence overtime. […] IC50 is determined by logistic regression with unconstrained maximum and minimum values.
pIC50: −log10 of the molar value.
OUTCOME MEASURE: pIC50

# COMPOUND, OUTCOME MEASURE, TEST VALUE
records = [
    ("Cc1cc(NC(=O)c2ccc(C(=O)Nc3ccc(F)cc3N)cc2)n[nH]1 (racemic)", "pIC50", 6.07),
    ("Nc1cc(F)ccc1NC(=O)c1ccc(C(=O)NCCCBr)cc1 (racemic)", "pIC50", 5.74),
    ("CC(NC(=O)c1ccc(C(=O)Nc2ccc(F)cc2N)cc1)c1ccccc1[N+](=O)[O-] (racemic)", "pIC50", 6.18),
    ("Nc1cc(F)ccc1NC(=O)c1ccc(C(=O)NCc2ccc(Br)cc2)cc1 (racemic)", "pIC50", 7.03),
]

---

- TESTED ON: HDAC3 (Homo sapiens)
- Construct: recombinant, full-length HDAC protein (HDAC1 100 pg/ul, HDAC2 200 pg/ul, HDAC3 100 pg/ul); purchased BPS Biosciences, San Diego, Calif., USA
- METHOD DESCRIPTION: HDAC enzyme assay, HDAC3 (fluorogenic, 384-well)
- Type: biochemical
- RUN PARAMETERS: recombinant full-length HDAC3, 3 hours incubation, substrate MAZ1600 at Km; FIGS. 4A-4D; read-out: IC50 HDAC3 (Tables 4-23, isoform selectivity panel)
Classes (IC50): low class (below 300 nM), middle class (300 nM to below 600 nM), high class (600 nM or more)

# MOLECULE, CATEGORY
data = [
    ("Nc1cc(F)ccc1NC(=O)c1ccc(C(=O)NCc2ccc(Br)cc2)cc1 (racemic)", "low class"),
    ("Cc1cc(NC(=O)c2ccc(C(=O)Nc3ccc(F)cc3N)cc2)n[nH]1 (racemic)", "middle class"),
    ("Nc1cc(F)ccc1NC(=O)c1ccc(C(=O)Nc2cccc3cnccc23)cc1 (racemic)", "middle class"),
    ("Nc1cc(F)ccc1NC(=O)c1ccc(C(=O)Nc2cccc3[nH]ccc23)cc1 (racemic)", "low class"),
    ("Nc1cc(F)ccc1NC(=O)c1ccc(C(=O)NCCCBr)cc1 (racemic)", "high class"),
    ("Nc1cc(F)ccc1NC(=O)c1ccc(C(=O)Nc2cccc3ncccc23)cc1 (racemic)", "high class"),
    ("Nc1cc(F)ccc1NC(=O)c1ccc(C(=O)NCC(F)(F)F)cc1 (racemic)", "middle class"),
    ("CC(=O)c1ccc(NC(=O)c2ccc(C(=O)Nc3ccc(F)cc3N)cc2)cc1 (racemic)", "low class"),
    ("Nc1cc(F)ccc1NC(=O)c1ccc(C(=O)Nc2ccc(N3CCOCC3)cc2)cc1 (racemic)", "low class"),
    ("Nc1cc(F)ccc1NC(=O)c1ccc(C(=O)Nc2ccc(Cl)c(C(F)(F)F)c2)cc1 (racemic)", "high class"),
    ("Nc1cc(F)ccc1NC(=O)c1ccc(C(=O)NC2CCNCC2)cc1 (racemic)", "middle class"),
    ("CC(NC(=O)c1ccc(C(=O)Nc2ccc(F)cc2N)cc1)c1ccccc1[N+](=O)[O-] (racemic)", "middle class"),
    ("Nc1cc(F)ccc1NC(=O)c1ccc(C(=O)Nc2cccc3sccc23)cc1 (racemic)", "low class"),
    ("Nc1cc(F)ccc1NC(=O)c1ccc(C(=O)NCCc2cccnc2)cc1 (racemic)", "middle class"),
    ("COc1cc(-c2ccccc2)ccc1NC(=O)c1ccc(C(=O)Nc2ccc(F)cc2N)cc1 (racemic)", "high class"),
    ("Nc1cc(F)ccc1NC(=O)c1ccc(C(=O)Nc2ccccc2)cc1 (racemic)", "low class"),
    ("Nc1cc(F)ccc1NC(=O)c1ccc(C(=O)NCCCn2ccnc2)cc1 (racemic)", "low class"),
]

---

- TESTED ON: HDAC2 (Homo sapiens)
- Construct: recombinant, full-length HDAC protein (HDAC1 100 pg/ul, HDAC2 200 pg/ul)
- METHOD DESCRIPTION: HDAC enzyme assay, HDAC2 (fluorogenic, 384-well)
- RUN PARAMETERS: read-out: IC50 HDAC2 (Tables 4-23, isoform selectivity panel)
Reported values of IC50 for individual entries

# COMPOUND, IC50
rows = [
    ("Nc1cc(F)ccc1NC(=O)c1ccc(C(=O)NC2CCNCC2)cc1 (racemic)", "880 nM"),
    ("Nc1cc(F)ccc1NC(=O)c1ccc(C(=O)Nc2ccccc2)cc1 (racemic)", "360 nM"),
    ("Nc1cc(F)ccc1NC(=O)c1ccc(C(=O)NCC(F)(F)F)cc1 (racemic)", "990 nM"),
    ("CC(=O)c1ccc(NC(=O)c2ccc(C(=O)Nc3ccc(F)cc3N)cc2)cc1 (racemic)", "220 nM"),
    ("Nc1cc(F)ccc1NC(=O)c1ccc(C(=O)Nc2ccc(N3CCOCC3)cc2)cc1 (racemic)", "440 nM"),
    ("COc1cc(-c2ccccc2)ccc1NC(=O)c1ccc(C(=O)Nc2ccc(F)cc2N)cc1 (racemic)", "4690 nM"),
    ("Nc1cc(F)ccc1NC(=O)c1ccc(C(=O)Nc2cccc3cnccc23)cc1 (racemic)", "930 nM"),
    ("Nc1cc(F)ccc1NC(=O)c1ccc(C(=O)NCCCn2ccnc2)cc1 (racemic)", "610 nM"),
    ("Nc1cc(F)ccc1NC(=O)c1ccc(C(=O)Nc2cccc3[nH]ccc23)cc1 (racemic)", "490 nM"),
    ("Nc1cc(F)ccc1NC(=O)c1ccc(C(=O)NCCc2cccnc2)cc1 (racemic)", "590 nM"),
]

---

- TESTED ON: HDAC3 (Homo sapiens, UniProt O15379)
- Construct: recombinant, full-length HDAC protein (HDAC1 100 pg/ul, HDAC2 200 pg/ul, HDAC3 100 pg/ul); purchased BPS Biosciences, San Diego, Calif., USA
- Sequence (O15379 whole entry): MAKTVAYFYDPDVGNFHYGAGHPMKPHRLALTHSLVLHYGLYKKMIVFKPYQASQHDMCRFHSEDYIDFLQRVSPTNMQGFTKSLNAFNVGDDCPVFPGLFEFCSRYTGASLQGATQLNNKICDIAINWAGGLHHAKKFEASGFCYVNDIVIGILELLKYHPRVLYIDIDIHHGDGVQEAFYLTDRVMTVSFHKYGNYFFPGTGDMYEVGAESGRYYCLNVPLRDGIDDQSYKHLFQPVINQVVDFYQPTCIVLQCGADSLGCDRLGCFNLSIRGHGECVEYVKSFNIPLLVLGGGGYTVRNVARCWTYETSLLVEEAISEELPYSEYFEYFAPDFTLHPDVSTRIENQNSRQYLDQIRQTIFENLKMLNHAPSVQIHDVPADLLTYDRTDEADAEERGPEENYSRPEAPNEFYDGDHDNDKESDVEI
- Sequence (Q9Y618 395-489 partner limits assumed): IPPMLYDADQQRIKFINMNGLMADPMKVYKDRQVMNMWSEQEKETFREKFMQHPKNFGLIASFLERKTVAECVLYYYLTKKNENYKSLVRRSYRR
- METHOD DESCRIPTION: HDAC enzyme assay, HDAC3 (fluorogenic, 384-well)
- Type: biochemical
- RUN PARAMETERS: recombinant full-length HDAC3, 3 hours incubation, substrate MAZ1600 at Km; read-out: IC50 against HDAC3 (Table 3, data of FIG. 2)
# note: exactly 500 nM is not below, so it is 0; use 1 for IC50 strictly under it

# COMPOUND, TESTED ON, CATEGORY
records = [
    ("Nc1cc(F)ccc1NC(=O)c1ccc(C(=O)NC2CCNCC2)cc1 (racemic) [DL-HDAC18]", "HDAC3 (Homo sapiens, UniProt O15379)", 0),
    ("Nc1cc(F)ccc1NC(=O)c1ccc(C(=O)NCc2ccc(Br)cc2)cc1 (racemic) [DL-HDAC13]", "HDAC3 (Homo sapiens, UniProt O15379)", 1),
    ("COc1cc(-c2ccccc2)ccc1NC(=O)c1ccc(C(=O)Nc2ccc(F)cc2N)cc1 (racemic) [DL-HDAC11]", "HDAC3 (Homo sapiens, UniProt O15379)", 0),
    ("Nc1cc(F)ccc1NC(=O)c1ccc(C(=O)NCC(F)(F)F)cc1 (racemic) [DL-HDAC16]", "HDAC3 (Homo sapiens, UniProt O15379)", 1),
    ("Nc1cc(F)ccc1NC(=O)c1ccc(C(=O)Nc2cccc3[nH]ccc23)cc1 (racemic) [DL-HDAC3]", "HDAC3 (Homo sapiens, UniProt O15379)", 1),
    ("CC(=O)c1ccc(NC(=O)c2ccc(C(=O)Nc3ccc(F)cc3N)cc2)cc1 (racemic) [DL-HDAC17]", "HDAC3 (Homo sapiens, UniProt O15379)", 1),
    ("Nc1cc(F)ccc1NC(=O)c1ccc(C(=O)Nc2ccc(Cl)c(C(F)(F)F)c2)cc1 (racemic) [DL-HDAC2]", "HDAC3 (Homo sapiens, UniProt O15379)", 0),
    ("Nc1cc(F)ccc1NC(=O)c1ccc(C(=O)NCCCBr)cc1 (racemic) [DL-HDAC15]", "HDAC3 (Homo sapiens, UniProt O15379)", 0),
    ("Nc1cc(F)ccc1NC(=O)c1ccc(C(=O)Nc2cccc3cnccc23)cc1 (racemic) [DL-HDAC9]", "HDAC3 (Homo sapiens, UniProt O15379)", 0),
    ("Nc1cc(F)ccc1NC(=O)c1ccc(C(=O)NCCCn2ccnc2)cc1 (racemic) [DL-HDAC19]", "HDAC3 (Homo sapiens, UniProt O15379)", 1),
]
